Read-out: TIMP metallopeptidase inhibitor 2 (TIMP2), TIMP2 (gene 7077)
ASSAY_DETAILS: BSK_KF3CT_TIMP2: BioMAP Diversity Plus: KF3CT Assay for TIMP metallopeptidase inhibitor 2 (TIMP2) Biomarker Activity (AID 2283071)
CONDITION_LABEL: primary human keratinocytes with fibroblasts; actives raise or lower the signal
Active and inactive are the calls of the source. Rule for the calls: active = hit-call score of the fitted dose curve at least 0.9, where 1 is the maximum; inactive = score below 0.9.
// classify into Y = active, N = inactive

Called result for "CCCCCCCCCC[N+](C)(C)CCCCCCCCCC"
Y

Which result was noted for this compound in the test: "O=C(O)C(F)(F)C(F)(F)C(F)(F)C(F)(F)C(F)(F)C(F)(F)C(F)(F)C(F)(F)F"
N

State the result this test recorded for "O=C(O)C(F)(F)C(F)(F)C(F)(F)C(F)(F)C(F)(F)F" .
N

Query: recorded result category for "Sc1ccccc1" in this test
N

Which outcome did this test record for the compound "CC1=C2C[C@H]3[C@@H](CC=C4C[C@@H](O)CC[C@@]43C)[C@@H]2CC[C@]12O[C@@H]1C[C@H](C)CN[C@H]1[C@H]2C" ?
N

====

ASSAY_DETAILS: ATG_MRE_CIS: Attagene CIS-FACTORIAL HepG2 Assay for human Metal Responsive Element (MRE) (AID 2282954)
CONDITION_LABEL: HepG2 MRE cis-reporter transcription, Attagene multiplex; actives raise or lower the signal
The source made the active and inactive calls. The calls were made as follows: active = hit-call score of the fitted dose curve at least 0.9, where 1 is the maximum; inactive = score below 0.9.
Field 'call' accepts TRUE for active, FALSE for inactive

Assay outcome for "C[C@]12CCC(=O)C=C1CC[C@@H]1[C@@H]2CC[C@]2(C)C(=O)CC[C@@H]12" : what was it?
FALSE

Hello, I am checking results. What call was entered for "Cc1ccccc1CO[C@@H]1C[C@@]2(C(C)C)CC[C@]1(C)O2" ?
FALSE

GET /call?item= "O=S(=O)(O)C(F)(F)C(F)(F)C(F)(F)C(F)(F)F" returns the recorded outcome of this test.
FALSE

Hi, sorry to bother you, what did the test record for "O=C(O)C(F)(F)C(F)(F)C(F)(F)C(F)(F)C(F)(F)F" ?
FALSE

Give the logged outcome of this assay for the following molecule: "Cc1cc(-c2ccc(N)c(C)c2)ccc1N"
FALSE

Returns: the outcome recorded for "CCOC(=O)C(O)(c1ccc(Cl)cc1)c1ccc(Cl)cc1" in this assay.
TRUE

// return assay outcome for "O=C(NC(=O)c1cc(F)c(F)cc1Cl)Nc1cc(F)ccc1N1CCC(C(=O)O)CC1"
FALSE

What classification did "Sc1ccccc1" end up with in this test?
FALSE

Could you kindly confirm the outcome this assay logged for "Clc1ccc(C(Cl)(Cl)Cl)cc1" ?
FALSE

What call does the record list for "Nn1cnnc1" ?
FALSE

====

ASSAY_DETAILS: CCTE_Shafer_MEA_acute_cross_correlation_HWHM: CCTE's Neural Acute Assay for Cross Correlation at Half Width at Half Maximum, Shafer Lab (AID 2284026);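 note: percent change per well from pre-dose baseline in spike cross-correlogram half width; hits are a decrease in cross-correlogram half width relative to DMSO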
Active and inactive are the calls of the source. Rule for the calls: active = hit-call score of the fitted dose curve at least 0.9, where 1 is the maximum; inactive = score below 0.9.
Entry note: the call must match one of TRUE = active, FALSE = inactive

Hi, do you know how "O=C(O)C(F)(F)C(F)(F)C(F)(F)C(F)(F)C(F)(F)F" came out in this test?
FALSE

Assay result, entry "CN(C)CCO" — outcome?
FALSE

How did this test come out for "C=CC(N)=O" ?
FALSE

Recorded test outcome, item "ClC1=C(Cl)[C@]2(Cl)[C@@H]3[C@@H]4C[C@@H]([C@H]5O[C@@H]45)[C@@H]3[C@@]1(Cl)C2(Cl)Cl"
TRUE

# outcome recorded in this test, key = "O=C(N[C@H]1CN2CCC1CC2)c1cc2ccoc2cn1"
FALSE

Tell me the recorded outcome of this test for "CCCCCCCCCc1ccc(O)cc1" .
TRUE

Identify the outcome logged in this assay for the molecule shown: "CCC(C)(c1ccc(O)cc1)c1ccc(O)cc1"
FALSE

====

ASSAY_DETAILS: ATG_AP_1_CIS: Attagene CIS-FACTORIAL HepG2 Assay for human Activator Protein 1 (AP-1) (AID 2282931)
CONDITION_LABEL: HepG2 Attagene cis-factorial AP-1 reporter mRNA; actives raise or lower the signal
Calls of active or inactive are those of the source. How the source made its calls: active means hit-call score of the fitted dose curve at least 0.9, where 1 is the maximum; inactive means score below 0.9.
Pick from active, inactive when you respond.

// outcome(item) with item = "C[C@]12CCC(=O)C=C1CC[C@@H]1[C@@H]2CC[C@]2(C)C(=O)CC[C@@H]12"
inactive

Call for entry "CCSC(=O)N(CC)C1CCCCC1" :
inactive

Could you check what this test reported for "ClC1=C(Cl)[C@]2(Cl)[C@@H]3[C@@H](Cl)[C@H]4O[C@H]4[C@@H]3C1(Cl)C2(Cl)Cl" ?
active

What did this assay record as the result for "CCCCCCCCCC[N+](C)(C)CCCCCCCCCC" ?
active

Status in this test for "Cc1cc(O)ccc1Cl" ?
inactive

Just curious, what result did "Cc1ccccc1CO[C@@H]1C[C@@]2(C(C)C)CC[C@]1(C)O2" get here?
inactive

Call for entry "CCCCCCCCOC(=O)c1ccccc1C(=O)OCCCCCCCC" :
inactive

// outcome(item) with item = "COc1ccc(O)c(C(C)(C)C)c1"
active

For "CCNc1nc(NC(C)C)nc(SC)n1" , what call appears in the results of this test?
inactive

Test call for this compound, please: "Cc1cc2c3c(c1)C(c1ccccc1)=N[C@@H](NC(=O)c1ccncc1)C(=O)N3CC2"
inactive

====

Read-out: growth arrest and DNA damage 45 (GADD45G), GADD45G (gene 10912)
ASSAY_DETAILS: LTEA_HepaRG_GADD45G: Life Technologies and Expression Analysis (LTEA) Assay for growth arrest and DNA damage 45 (GADD45G) using HepaRG (AID 2283499)
CONDITION_LABEL: mRNA level, 48 h; actives raise or lower the signal
Active and inactive are the calls of the source. The calls were made as follows: active = hit-call score of the fitted dose curve at least 0.9, where 1 is the maximum; inactive = score below 0.9.
PROPERTY: AC50

{"COMPOUND": "ClC1=C(Cl)[C@]2(Cl)[C@@H]3[C@@H]4C[C@@H]([C@H]5O[C@@H]45)[C@@H]3[C@@]1(Cl)C2(Cl)Cl", "AC50": "inactive"}
{"COMPOUND": "CCNc1nc(NC(C)C)nc(SC)n1", "AC50": "63.9 µM (active)"}
{"COMPOUND": "CCC(C)c1cc([N+](=O)[O-])cc([N+](=O)[O-])c1O (stereo unspecified)", "AC50": "4.96 µM (active)"}
{"COMPOUND": "O=S(=O)(O)C(F)(F)C(F)(F)C(F)(F)C(F)(F)F", "AC50": "inactive"}
{"COMPOUND": "CCOP(=S)(OCC)SCSC(C)(C)C", "AC50": "inactive"}
{"COMPOUND": "Cc1cc(O)ccc1Cl", "AC50": "inactive"}

Lookup result for "ClC1=C(Cl)[C@]2(Cl)[C@@H]3[C@H]4C[C@H]([C@@H]5O[C@H]45)[C@@H]3[C@@]1(Cl)C2(Cl)Cl" ; measured AC50: inactive

Briefly, AC50 measured for "Cc1cccc(C)c1N" : inactive

Note to self: AC50 recorded for "CCCCCCCCCc1ccc(O)cc1" was inactive

Note to self: AC50 recorded for "Oc1ccc(C(c2ccc(O)cc2)(C(F)(F)F)C(F)(F)F)cc1" was inactive

====

Read-out: C-C motif chemokine 2 (Homo sapiens)
ASSAY_DETAILS: BSK_KF3CT_MCP1: BioMAP Diversity Plus: KF3CT Assay for Monocyte Chemoattractant Protein 1 (MCP1/CCL2) Biomarker Activity (AID 2283073)
CONDITION_LABEL: primary human keratinocytes with fibroblasts; actives raise or lower the signal
Experimental: BSK_KF3CT is a cell-based, multiplexed-readout assay that uses keratinocytes and foreskin fibroblasts, a human skin primary cell co-culture, with measurements taken at 24 hours after chemical dosing in a 96-well plate.BSK_KF3CT_MCP1 is an assay component measured in the BSK_KF3CT assay. It measures MCP-1 antibody related to regulation of gene expression using ELISA technology.Data from the assay component BSK_KF3CT_MCP1 was analyzed into 1 assay endpoint. […]
Calls of active or inactive are those of the source. Rule for the calls: active = hit-call score of the fitted dose curve at least 0.9, where 1 is the maximum; inactive = score below 0.9.
PROPERTY: AC50

Guide cases for AC50, answers given:
{"COMPOUND": "CN(C)c1nc(=O)n(C2CCCCC2)c(=O)n1C", "AC50": "inactive"}
{"COMPOUND": "c1cc2ccc3cccc4ccc(c1)c2c34", "AC50": "inactive"}
{"COMPOUND": "Cc1ccccc1[N+](=O)[O-]", "AC50": "inactive"}
{"COMPOUND": "CCOC(=O)C(O)(c1ccc(Cl)cc1)c1ccc(Cl)cc1", "AC50": "inactive"}
{"COMPOUND": "Cc1cc2c3c(c1)C(c1ccccc1)=N[C@@H](NC(=O)c1ccncc1)C(=O)N3CC2", "AC50": "inactive"}

Now for another entry.
Entry "CCC(C)(c1ccc(O)cc1)c1ccc(O)cc1" ; AC50 = inactive

====

Read-out: adenosine kinase (ADK) gene, ADK (gene 132)
ASSAY_DETAILS: LTEA_HepaRG_ADK: Life Technologies and Expression Analysis (LTEA) Assay for adenosine kinase (ADK) gene using HepaRG (AID 2283471)
CONDITION_LABEL: mRNA level, 48 h; actives raise or lower the signal
Calls of active or inactive are those of the source. Rule for the calls: active = hit-call score of the fitted dose curve at least 0.9, where 1 is the maximum; inactive = score below 0.9.
PROPERTY: AC50

Use these answered entries as a reference point.
{"SAMPLE_SMILES": "O=NN(c1ccccc1)c1ccccc1", "RESULT": "11.8 µM (active)"}
{"SAMPLE_SMILES": "Clc1ccc(Cl)cc1", "RESULT": "inactive"}
{"SAMPLE_SMILES": "Cc1cc(-c2ccc(N)c(C)c2)ccc1N", "RESULT": "inactive"}
{"SAMPLE_SMILES": "CCSC(=O)N(CC)C1CCCCC1", "RESULT": "inactive"}

Turning now to a further record.
Value of measured AC50 for the entry "C[C@]12CCC(=O)C=C1CC[C@@H]1[C@@H]2CC[C@]2(C)C(=O)CC[C@@H]12" : inactive
